test: Pharmacokinetic measurements of H3B-6527 capsules in patients (trial NCT02834780), plasma LC-MS/MS; format: in vivo, human; conditions: 1000 mg QD, fed, Day 1; Table 5, nominal times
READOUT: AUC, geometric mean (CV%) (ng·h/mL)

[[record]]
compound_string = "C=CC(=O)Nc1cc(N2CCN(CC)CC2)ccc1Nc1cc(N(C)C(=O)Nc2c(Cl)c(OC)cc(OC)c2Cl)ncn1"
measured_value = 1100


---

assay: Pharmacokinetic measurements of H3B-6527 capsules in patients (trial NCT02834780), plasma LC-MS/MS; type: in vivo, human; details: human, plasma, oral, 1000 mg, 1000 mg QD, fasted, Day 1; Table 5, nominal times; read-out: Half-life, geometric mean (CV%) (converted)
READOUT: half-life

[[record]]
compound_string = "C=CC(=O)Nc1cc(N2CCN(CC)CC2)ccc1Nc1cc(N(C)C(=O)Nc2c(Cl)c(OC)cc(OC)c2Cl)ncn1"
measured_value = "4.5 h"

